The measured values listed here are drawn from patent US6548546B2.

Biological target: Purified recombinant HIV-1 integrase (Human immunodeficiency virus type 1 group M subtype B, UniProt P04585)
Construct: Purified recombinant HIV-1 integrase
Assay: in vitro HIV-1 integrase integration (strand transfer) assay
Format: biochemical
Details: compound at 70 μM; immobilized precleaved substrate DNA, biotinylated target DNA, 1 hour at 37° C.
Classify by measured inhibition at 70 µM: 1 if it is equal to or exceeds 90%, -1 if it is smaller.

Here are 3 compounds together with their reported answers.
# compound, assigned.class
rows = [
    ("O=C(/C=C(\\O)C(=O)O)CC(=O)c1ccc(Cl)cc1Cl", 1),
    ("O=C(/C=C(\\O)C(=O)O)CC(=O)c1cc(Cl)ccc1Cl", 1),
    ("O=C(/C=C(\\O)C(=O)O)CCc1ccccc1 [Compound 3, 2-Hydroxy-4-oxo-phenyl-hex-2-enoic Acid]", -1),
]

Task: Textbook exercise: given the entry O=C(/C=C(\O)C(=O)O)CC(=O)c1ccccc1OCc1ccccc1 , state whether its inhibition at 70 µM is greater than or equal to 90%.
Output: 1

Task: Textbook exercise: given the entry O=C(/C=C(\O)C(=O)O)CC(=O)c1ccc(-c2ccccc2)cc1 , state whether its inhibition at 70 µM is greater than or equal to 90%.
Output: 1

Task: Textbook exercise: given the entry O=C(/C=C(\O)C(=O)O)CCc1ccccc1Cl , state whether its inhibition at 70 µM is greater than or equal to 90%.
Output: -1
